These entries and their values trace back to the RNAGym collection of RNA variant scans (doi:10.1101/gad.245936.114).

B1: tRNA (parent)
chain: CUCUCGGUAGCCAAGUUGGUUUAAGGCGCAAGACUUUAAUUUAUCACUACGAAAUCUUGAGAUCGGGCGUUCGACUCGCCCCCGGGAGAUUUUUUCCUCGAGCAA

- Variants of: B1
- Test protocol: nonsense suppression (GFP-seq) (ratio to wild type); higher = more function; SUP4oc tRNA, yeast GFP reporter sort-seq
Fewer inactive variants are shown than the library holds.

| Mutation string | nonsense suppression |
| --- | --- |
| A14U A24C | 0.0284 |
| U58C U63C | 0.144 |
| U20C C79U G84U | ≤ 0.026 |
| C11U G19A G25A C29U G59A | ≤ 0.026 |
| A9G U16A U55C | 0.188 |
| U20C G86A | ≤ 0.026 |
| C29A G73A | ≤ 0.026 |
| A31U U55G G67C | ≤ 0.026 |
| G19U A60U G73U | ≤ 0.026 |
| A9G A54C | 0.207 |
| C1A U8G C12U A14C G85U | ≤ 0.026 |
| U16C C83G G86A A87G | ≤ 0.026 |
| U4A A13C C83U G84C | ≤ 0.026 |
| A62G G67A | ≤ 0.026 |
| A24U C80U | 0.192 |
| U21A G28C | 0.495 |
| U63G G66U G84A | ≤ 0.026 |
| G18U U76C G86U | ≤ 0.026 |
| U63C C68U | 0.228 |
| G6U U63C | ≤ 0.026 |
| A24C G85U | 0.258 |
| A23G C34A | ≤ 0.026 |
| U4C A87G | 1.1 |
| A14C C56A C81G | ≤ 0.026 |
| A31G C79U | 0.77 |
| U55C G65A | 0.0796 |
| U8A A14U U20A A74C | ≤ 0.026 |
| U8A U57G C82A | ≤ 0.026 |
| A33U U55C U63A U70C | ≤ 0.026 |
| G10A U58A A62G U70A | ≤ 0.026 |
| A13C A31U G61C | ≤ 0.026 |
| A24C U63G | 0.133 |
| U55A U71A | ≤ 0.026 |
| G19A U21G C64U | ≤ 0.026 |
| U4C U57G | 0.0337 |
| U4C U55A G67A C79G C83G | ≤ 0.026 |
| G32A A62G U71G G78A G85A | ≤ 0.026 |
| U55C U63G | ≤ 0.026 |
